Molecular target: UniProt:P53341
Experiment: biochemical
Type: biochemical
Details: read-out: IC50 (μM), in vitro α-glucosidase inhibitory activity
Source text: On the other hand, there are phenyl, 4-methylphenyl, and or 4-methoxyphenyl groups in the benzenesulfonamide moiety.
Please respond with true when measured IC50 is strictly beneath 100 µM, and with false in all other cases.

[
  {
    "Smiles notation": "Cc1ccc(S(=O)(=O)N=C(CCN2C(=O)c3ccccc3C2=O)N2CCOCC2)cc1",
    "Assigned label": "false"
  },
  {
    "Smiles notation": "O=C1c2ccccc2C(=O)N1CCC(=NS(=O)(=O)c1ccccc1)N(c1ccccc1)c1ccccc1",
    "Assigned label": "false"
  },
  {
    "Smiles notation": "Cc1ccc(S(=O)(=O)N=C(CCN2C(=O)c3ccccc3C2=O)N(c2ccccc2)c2ccccc2)cc1",
    "Assigned label": "false"
  },
  {
    "Smiles notation": "Cc1ccc(S(=O)(=O)N=C(CCN2C(=O)c3ccccc3C2=O)N2CCCCC2)cc1",
    "Assigned label": "false"
  },
  {
    "Smiles notation": "COc1ccc(S(=O)(=O)N=C(CCN2C(=O)c3ccccc3C2=O)N2CCCCC2)cc1",
    "Assigned label": "false"
  }
]

We now examine a further molecule.
In the record for `O=C1c2ccccc2C(=O)N1CCC(=NS(=O)(=O)c1ccccc1)N1CCC(Cc2ccccc2)CC1` , is IC50 less than 100 µM? true

###

Biological target: yeast α-glucosidase (Saccharomyces cerevisiae, UniProt P53341)
Sequence (P53341 whole entry): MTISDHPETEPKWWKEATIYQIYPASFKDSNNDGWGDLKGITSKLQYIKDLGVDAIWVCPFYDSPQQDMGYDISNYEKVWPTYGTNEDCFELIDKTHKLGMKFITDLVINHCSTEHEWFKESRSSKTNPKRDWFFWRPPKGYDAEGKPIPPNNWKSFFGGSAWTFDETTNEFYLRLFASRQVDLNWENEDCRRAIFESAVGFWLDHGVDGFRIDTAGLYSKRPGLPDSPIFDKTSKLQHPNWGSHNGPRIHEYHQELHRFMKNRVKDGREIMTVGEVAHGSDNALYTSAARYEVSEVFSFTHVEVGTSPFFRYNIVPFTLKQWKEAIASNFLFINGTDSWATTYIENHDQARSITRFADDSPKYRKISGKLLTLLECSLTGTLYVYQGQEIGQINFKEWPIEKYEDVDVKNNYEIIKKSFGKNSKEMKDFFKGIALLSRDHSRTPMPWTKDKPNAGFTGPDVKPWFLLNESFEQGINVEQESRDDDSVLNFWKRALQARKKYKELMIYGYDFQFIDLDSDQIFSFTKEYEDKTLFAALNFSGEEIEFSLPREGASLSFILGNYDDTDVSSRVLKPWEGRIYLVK
Test: biochemical
Type: biochemical
Conditions: SAR discussion
Measured metric: α-glucosidase inhibitory activity, in words

Known results for molecules:
[
  {
    "Smiles notation": "Cc1ccc(S(=O)(=O)N=C(CCN2C(=O)c3ccccc3C2=O)N2CCOCC2)cc1",
    "Observed value": "high inhibitory activity"
  },
  {
    "Smiles notation": "COc1ccc(S(=O)(=O)N=C(CCN2C(=O)c3ccccc3C2=O)N2CCC(Cc3ccccc3)CC2)cc1",
    "Observed value": "inactive"
  },
  {
    "Smiles notation": "O=C1c2ccccc2C(=O)N1CCC(=NS(=O)(=O)c1ccccc1)N1CCOCC1",
    "Observed value": "inactive"
  },
  {
    "Smiles notation": "Cc1ccc(S(=O)(=O)N=C(CCN2C(=O)c3ccccc3C2=O)N2CCCCC2)cc1",
    "Observed value": "high inhibitory activity"
  },
  {
    "Smiles notation": "O=C1c2ccccc2C(=O)N1CCC(=NS(=O)(=O)c1ccccc1)N1CCC(Cc2ccccc2)CC1",
    "Observed value": "high inhibitory activity"
  }
]

Next:
Lab request: please report α-glucosidase inhibitory activity, in words under test system yeast α-glucosidase (Saccharomyces cerevisiae, UniProt P53341) for `O=C1c2ccccc2C(=O)N1CCC(=NS(=O)(=O)c1ccccc1)N1CCCCC1` inactive

###

Measured metric: melting point

Known results for molecules:
[
  {
    "Smiles notation": "Cc1ccc(S(=O)(=O)N=C(CCN2C(=O)c3ccccc3C2=O)N(c2ccccc2)c2ccccc2)cc1",
    "melting point": "202 to 204 °C"
  },
  {
    "Smiles notation": "COc1ccc(S(=O)(=O)N=C(CCN2C(=O)c3ccccc3C2=O)N2CCCCC2)cc1",
    "melting point": "146 to 148 °C"
  },
  {
    "Smiles notation": "O=C1c2ccccc2C(=O)N1CCC(=NS(=O)(=O)c1ccccc1)N(c1ccccc1)c1ccccc1",
    "melting point": "202 to 204 °C"
  },
  {
    "Smiles notation": "O=C1c2ccccc2C(=O)N1CCC(=NS(=O)(=O)c1ccccc1)N1CCOCC1",
    "melting point": "168 to 170 °C"
  },
  {
    "Smiles notation": "Cc1ccc(S(=O)(=O)N=C(CCN2C(=O)c3ccccc3C2=O)N2CCOCC2)cc1",
    "melting point": "204 to 206 °C"
  },
  {
    "Smiles notation": "O=C1c2ccccc2C(=O)N1CCC(=NS(=O)(=O)c1ccccc1)N1CCCCC1",
    "melting point": "158 to 160 °C"
  }
]

Provide melting point for all items below, preserving their order.
1. O=C1c2ccccc2C(=O)N1CCC(=NS(=O)(=O)c1ccccc1)N1CCN(c2ccccc2)CC1
2. COc1ccc(S(=O)(=O)N=C(CCN2C(=O)c3ccccc3C2=O)N2CCOCC2)cc1
3. Cc1ccc(S(=O)(=O)N=C(CCN2C(=O)c3ccccc3C2=O)N2CCCCC2)cc1

["160 to 164 °C", "172 to 174 °C", "198 to 200 °C"]
